system-name: human EP1 receptor (Homo sapiens, UniProt P34995)
Construct: expressed in transfected cells
Sequence (P34995 whole entry): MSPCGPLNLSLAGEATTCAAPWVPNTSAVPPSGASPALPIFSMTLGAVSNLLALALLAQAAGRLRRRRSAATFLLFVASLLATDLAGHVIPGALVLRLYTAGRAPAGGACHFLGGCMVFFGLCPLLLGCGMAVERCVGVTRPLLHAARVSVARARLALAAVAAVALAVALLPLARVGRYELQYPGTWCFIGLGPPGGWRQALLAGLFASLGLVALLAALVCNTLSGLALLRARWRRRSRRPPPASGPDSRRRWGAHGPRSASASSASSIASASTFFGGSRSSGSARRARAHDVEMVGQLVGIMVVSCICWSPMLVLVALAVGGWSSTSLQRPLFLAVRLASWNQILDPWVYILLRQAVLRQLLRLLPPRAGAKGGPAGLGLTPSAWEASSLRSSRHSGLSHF
protocol-notes: Antagonist activity (SRE-Luciferase reporter activity) using cells expressing human EP1 receptor
Format: cell-based
test-conditions: HEK293 cells stably expressing human EP1 receptor with SRE-Luciferase reporter; PGE2 final concentration 10 nM; 37° C. for 6 hours; read-out: IC50 value, antagonist activity measurement test using the cells expressing human EP1 receptor
assay-metric: IC50

line-notation: Cc1c(-c2ccccc2)nn(-c2nc(C(=O)O)cs2)c1-c1cccc(O)c1
IC50: 100 to 300 nM
//
line-notation: Cc1c(-c2ccccc2)nn(-c2nc(C(=O)O)cs2)c1-c1ccccc1
IC50: ≤ 100 nM
//
line-notation: O=C(O)c1csc(-n2nc(-c3ccccc3)c(Cl)c2-c2ccccc2)n1
IC50: ≤ 100 nM
//
line-notation: Cc1c(-c2ccccc2)nn(-c2nc(C(=O)O)cs2)c1-c1cc(F)c(F)c(F)c1
IC50: 100 to 300 nM
//
line-notation: Cc1c(-c2ccccc2)nn(Cc2nc(C(=O)O)cs2)c1-c1ccccc1
IC50: 300 to 1000 nM
//
line-notation: Cc1c(-c2ccccc2)nn(/C=C/c2nc(C(=O)O)cs2)c1-c1ccccc1
IC50: 100 to 300 nM
//
line-notation: COc1ccccc1-c1c(C)c(-c2ccccc2)nn1-c1nc(C(=O)O)cs1
IC50: 300 to 1000 nM
//
line-notation: Cc1c(-c2ccccc2)nn(-c2nc(C(=O)O)cs2)c1-c1ccoc1
IC50: ≤ 100 nM

Shift focus to the following entry.
(Q) For Cc1c(-c2ccccc2)nn(-c2nc(C(=O)O)cs2)c1-c1ccco1 , what is its reported IC50?
(A) ≤ 100 nM

Cited source: patent US7960392B2
